The measurements presented in this section are drawn from ChEMBL document CHEMBL4725394.

assay: Oral bioavailability in ICR mouse at 1 mg/kg by high-performance LC-tandem MS analysis; format: ADME, organism-based; conditions: in vivo
readoutName: bioavailability (%)

compound: COc1ccc(C(=O)N(CC(C)(C)C)c2cccc(C)n2)c(N2CCC(COc3cc([C@@H](CC(=O)O)C4CC4)ccn3)CC2)c1
readoutName: bioavailability
unitSpec: %
testResult: 26

###

molecular target: Free fatty acid receptor 1 (Homo sapiens)

compound: COc1ccc(F)c(-c2ccc(COc3cccc([C@@H](CC(=O)O)C4CC4)c3)cc2C2=CCCC2(C)C)c1
unitSpec: nM
Kd: 5

###

target: Free fatty acid receptor 1 (Homo sapiens, UniProt O14842); assay: Agonist activity at human GPR40 expressed in CHO cells incubated for 60 mins by FLIPR based Ca2+ mobilization assay; type: functional, cell-based
Sequence (O14842 whole entry): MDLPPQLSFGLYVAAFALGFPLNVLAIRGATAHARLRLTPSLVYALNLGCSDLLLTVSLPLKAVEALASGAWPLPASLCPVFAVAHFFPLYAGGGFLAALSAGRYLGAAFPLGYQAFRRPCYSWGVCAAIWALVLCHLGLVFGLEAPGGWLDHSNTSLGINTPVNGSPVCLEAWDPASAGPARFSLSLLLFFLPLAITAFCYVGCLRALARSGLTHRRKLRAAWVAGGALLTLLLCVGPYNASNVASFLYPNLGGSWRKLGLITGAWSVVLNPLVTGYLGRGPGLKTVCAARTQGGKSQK
pEC50: −log10 of the molar value.

molecule: COc1ccc(C(=O)N(C)c2ccccn2)c(N2CCC(COc3cccc(C(CC(=O)O)C4CC4)c3)CC2)c1 (stereo not drawn)
testSystem: Free fatty acid receptor 1 (Homo sapiens, UniProt O14842)
pEC50: 6.74
//
molecule: COc1ccc(C(=O)N(CC(C)(C)C#N)c2ccccn2)c(N2CCC(COc3cccc(C(CC(=O)O)C4CC4)c3)CC2)c1 (stereo not drawn)
testSystem: Free fatty acid receptor 1 (Homo sapiens, UniProt O14842)
pEC50: 6.80
//
molecule: COc1ccc(C(=O)N(C)c2ccccc2)c(N2CCC(COc3cccc(C(CC(=O)O)C4CC4)c3)CC2)c1 (stereo not drawn)
testSystem: Free fatty acid receptor 1 (Homo sapiens, UniProt O14842)
pEC50: 6.85
//
molecule: COc1ccc(C(=O)N(CC(C)(C)C)c2cccc(C)n2)c(N2CCC(COc3cc([C@H](CC(=O)O)C4CC4)ccn3)CC2)c1
testSystem: Free fatty acid receptor 1 (Homo sapiens, UniProt O14842)
pEC50: 7.08
//
molecule: CCOC(CC(=O)O)c1cccc(OCC2CCN(c3cc(OC)ccc3C(=O)N(CC(C)(C)C)c3cccc(C)n3)CC2)c1 (stereo not drawn)
testSystem: Free fatty acid receptor 1 (Homo sapiens, UniProt O14842)
pEC50: 7.13
//
molecule: COc1ccc(F)c(-c2ccc(COc3cccc([C@@H](CC(=O)O)C4CC4)c3)nc2CC(C)(C)C)c1
testSystem: Free fatty acid receptor 1 (Homo sapiens, UniProt O14842)
pEC50: 6.82
//
molecule: COc1ccc(CCCC(C)(C)C)c(N2CCC(COc3cccc(C(CC(=O)O)C4CC4)c3)CC2)c1 (stereo not drawn)
testSystem: Free fatty acid receptor 1 (Homo sapiens, UniProt O14842)
pEC50: 7.96
//
molecule: COc1ccc(C(C)C)c(N2CCC(COc3cccc(C(CC(=O)O)C4CC4)c3)CC2)c1 (stereo not drawn)
testSystem: Free fatty acid receptor 1 (Homo sapiens, UniProt O14842)
pEC50: 6.92
//
molecule: COCC(CC(=O)O)c1cccc(OCC2CCN(c3cc(OC)ccc3C(=O)N(CC(C)(C)C)c3cccc(C)n3)CC2)c1 (stereo not drawn)
testSystem: Free fatty acid receptor 1 (Homo sapiens, UniProt O14842)
pEC50: 6.92
//
molecule: COc1ccc(C(=O)N(CC(C)(C)C)c2cccc(C)n2)c(N2CCC(COc3cccc(C(CC(=O)O)C4CC4)c3)CC2)c1 (stereo not drawn)
testSystem: Free fatty acid receptor 1 (Homo sapiens, UniProt O14842)
pEC50: 7.77
//
molecule: COc1ccc(C(=O)N(CC(C)(C)OC)c2ccccn2)c(N2CCC(COc3cccc(C(CC(=O)O)C4CC4)c3)CC2)c1 (stereo not drawn)
testSystem: Free fatty acid receptor 1 (Homo sapiens, UniProt O14842)
pEC50: 7.00
//
molecule: COc1ccc(CCC(C)(C)C)c(N2CCC(COc3cccc(C(CC(=O)O)C4CC4)c3)CC2)c1 (stereo not drawn)
testSystem: Free fatty acid receptor 1 (Homo sapiens, UniProt O14842)
pEC50: 7.47
//
molecule: COc1ccc(CCCC(C)(C)C)c(-c2ccc(COc3cccc(C(CC(=O)O)C4CC4)c3)cc2)c1 (stereo not drawn)
testSystem: Free fatty acid receptor 1 (Homo sapiens, UniProt O14842)
pEC50: 6.39
//
molecule: COc1ccc(C)c(N2CCC(COc3cccc(C(CC(=O)O)C4CC4)c3)CC2)c1 (stereo not drawn)
testSystem: Free fatty acid receptor 1 (Homo sapiens, UniProt O14842)
pEC50: 6.57
//
molecule: COc1ccc(CN(C)CC(C)C)c(N2CCC(COc3cccc(C(CC(=O)O)C4CC4)c3)CC2)c1 (stereo not drawn)
testSystem: Free fatty acid receptor 1 (Homo sapiens, UniProt O14842)
pEC50: 6.00
//
molecule: COc1ccc(C(=O)N(CC(C)C)c2ccccn2)c(N2CCC(COc3cccc(C(CC(=O)O)C4CC4)c3)CC2)c1 (stereo not drawn)
testSystem: Free fatty acid receptor 1 (Homo sapiens, UniProt O14842)
pEC50: 7.54
//
molecule: COc1ccc(C(=O)N(CC(C)(C)C)c2cccc(C)n2)c(N2CCC(COc3cc([C@@H](CC(=O)O)C4CC4)ccn3)CC2)c1
testSystem: Free fatty acid receptor 1 (Homo sapiens, UniProt O14842)
pEC50: 7.92
//
molecule: COc1ccc(CCCC(C)(C)C)c(N2CC(COc3cccc(C(CC(=O)O)C4CC4)c3)C2)c1 (stereo not drawn)
testSystem: Free fatty acid receptor 1 (Homo sapiens, UniProt O14842)
pEC50: 6.60
